protocol description: viability profiling in MM1S myeloma cells – cell-based, resazurin fluorescence, basal, 24 h, PK04 Diversity Set, profiling panel (AID 1174);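 also: MM1S multiple myeloma cell line; test concentration not given here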
test parameters: higher = more signal, called active from +8 up or from −8 down
Give z-score for every item shown.
Numbers only.

Some entries whose results are on file:
{"compound": "CCOC(=O)C1=C[C@@H](C(C)(C)C)N(S(=O)(=O)c2ccc(C)cc2)[C@H]1c1ccc(Cl)c(Cl)c1", "observed value": -1.01}
{"compound": "COc1ccc([Si](C)(C)[C@H]2[C@H](CC(=O)N(CCO)Cc3ccccc3)O[C@@]3(C(=O)N(Cc4cccc(N5C(=O)c6cccc7cccc5c67)c4)c4ccccc43)[C@@H]2C)cc1", "observed value": -3.19}
{"compound": "CCCNC(=O)[C@@]1(C)c2ccccc2C(=O)N(Cc2cc(C(F)(F)F)cc(C(F)(F)F)c2)[C@H]1c1ccc(CO)cc1", "observed value": 0.526}
{"compound": "COc1ccc([Si](C)(C)[C@H]2[C@H](CCO)O[C@@]3(C(=O)N(Cc4cccc(N5C(=O)c6cccc7cccc5c67)c4)c4ccccc43)[C@@H]2C)cc1", "observed value": -4.22}
{"compound": "COc1ccc(C(=O)Nc2cccc(CN3C(=O)[C@@]4(O[C@@H](CC(=O)N5Cc6ccccc6C[C@H]5CO)[C@H]([Si](C)(C)c5ccc(OC)cc5)[C@H]4C)c4ccccc43)c2)cc1", "observed value": -3.05}

Provide z-score values for the following items, in order.
1. CCOC(=O)N1C(c2ccc(OCCCO)cc2)=NC(C(=O)OC)N1C(=O)OCC (centres undefined)
2. O=C(NCC(O)CO)[C@]1(CCS(=O)(=O)c2ccccc2)N=C(c2ccc(OCCCO)cc2)O[C@@H]1c1ccccc1 (some centres undefined)

1: 0.715; 2: -0.57

Provide z-score values for the following items, in order.
1. [N-]=[N+]=Nc1ccccc1[C@@H]1OC(c2ccc(OCCCO)cc2)=N[C@]1(CCS(=O)(=O)c1ccccc1)C(=O)N1CCCCC1
2. CCCNC(=O)[C@@]1(C)c2ccccc2C(=O)N(C(C)C)[C@H]1c1ccc(CO)cc1
3. CCCC[C@H]1C[C@@H]1[C@@H]1N(P(=O)(c2ccccc2)c2ccccc2)[C@](CO)(c2ccccc2)CC12CC2
4. C[N+](C)(C)CCCC[C@@H]1NC(=O)[C@H]2C[C@@H](C(=O)O)[C@@H](c3cccc(OCCO)c3)N2C1=O
5. COc1ccc([Si](C)(C)[C@H]2[C@H](CC(=O)N3Cc4ccccc4C[C@H]3CO)O[C@@]3(C(=O)N(Cc4cccc(I)c4)c4ccccc43)[C@@H]2C)cc1

-1.66
0.148
-1.93
0.644
-2.22

Provide z-score values for the following items, in order.
1. C#C[C@H](O[Si](C#CCCCCCC)(C(C)C)C(C)C)c1ccccc1
2. C=CCN1C(=O)[C@@]2(O[C@@H](CCO)[C@H]([Si](C)(C)c3ccc(OC)cc3)[C@H]2C)c2cc(N3C(=O)COc4ccccc43)ccc21

0.221
-8.85

====

system under test: Follistatin (Homo sapiens)
protocol description: FST protein binding to printed compounds – biochemical, small-molecule microarray, 635/667 nm fluorescence, primary screen (AID 1132)
test parameters: 635 nm fluorescence, higher = more signal
assay endpoint: composite z-score
One number for each entry.

Some entries whose results are on file:
{"molecule": "COc1ccc(CCNC(=O)[C@@]2(C)c3ccccc3C(=O)N(Cc3ccccc3)[C@H]2c2ccc(CO)cc2)cc1", "system under test": "Follistatin (Homo sapiens)", "composite z-score": 1.45}
{"molecule": "O=C(NCC(O)CO)[C@]1(CCS(=O)(=O)c2ccccc2)N=C(c2ccc(OCCCO)cc2)O[C@@H]1c1ccccc1 (stereo partly drawn)", "system under test": "Follistatin (Homo sapiens)", "composite z-score": 0.866}
{"molecule": "CC(C)(C)OC(=O)CC[C@@]1(C(N)=O)N=C(c2ccc(OCCCO)cc2)O[C@@H]1c1ccccc1N=[N+]=[N-]", "system under test": "Follistatin (Homo sapiens)", "composite z-score": 1.21}
{"molecule": "C=CCOC(=O)[C@H]1[C@@H]2C(=O)O[C@@H](c3ccccc3)[C@@H](c3ccccc3)N2[C@@H](c2ccc(OCCOC(=O)[C@H]3C[C@H]4C(=O)N[C@@H](CCCC[N+](C)(C)C)C(=O)N4[C@H]3c3ccc(O)cc3)cc2)[C@]12C(=O)Nc1ccccc12", "system under test": "Follistatin (Homo sapiens)", "composite z-score": 1.16}
{"molecule": "O=C1c2ccccc2[C@@]2(Cc3ccccc3N(Cc3ccccc3)C2=O)[C@H](c2ccc(CO)cc2)N1Cc1ccccc1C(F)(F)F", "system under test": "Follistatin (Homo sapiens)", "composite z-score": -0.368}

Provide composite z-score values for the following items, in order.
1. O=C(NCc1ccccc1)[C@@H]1c2ccccc2C(=O)N(C2CCCCC2)[C@H]1c1ccc(CO)cc1
2. O=C1OCCC=C[C@H]2OC34C=CCN(CCN5CCOCC5)C(=O)[C@H]3N(CCO)C(=O)[C@@H]4C12 (stereo partly drawn)
3. CC(=O)n1cc(C(O)C2C=CC3C(=O)N(c4ccccc4)C(=O)C3N2Nc2ccc(C#N)cc2)c2ccccc21 (stereo not drawn)
4. NC(=O)NCC#Cc1ccc2c(c1)[C@]1(C(=O)N2)[C@H](c2ccccc2OCCO)N2[C@H](c3ccccc3)[C@H](c3ccccc3)OC(=O)[C@H]2[C@@H]1C(=O)N1CCCCCCC1
5. O=C1O[C@@H](c2ccccc2)[C@@H](c2ccccc2)N2[C@@H](c3ccc(O)cc3)[C@]3(C(=O)Nc4ccccc43)[C@@H](C(=O)NC[C@H](O)c3ccccc3)[C@H]12
6. COc1ccc([Si](C)(C)[C@@H]2[C@@H](CCO)O[C@]3(C(=O)N(Cc4ccccc4)c4ccc(N(C=O)c5ccccc5)cc43)[C@H]2C)cc1
7. COc1ccc([Si](C)(C)[C@@H]2[C@@H](CC(=O)N3Cc4ccccc4C[C@H]3CO)O[C@]3(C(=O)N(Cc4cccc(N5C(=O)COc6ccccc65)c4)c4ccccc43)[C@H]2C)cc1
8. CCCCCCC#C[Si](O[C@H](c1ccccc1)c1cn([C@H](C)c2ccccc2)nn1)(C(C)C)C(C)C

1: 1.29; 2: 1.11; 3: 0.12; 4: 1.37; 5: 1.02; 6: 1.08; 7: 1.26; 8: 0.441
